Method Notes: Plasma pharmacokinetics, Phase I open‐label two‐group fixed‐sequence drug‐drug interaction study
Stated Conditions: human, plasma, oral, C last, Group 1 Day 20, SMV + ODV; mean (SD)
Measure Name: concentration at 23.9 h (ng/mL)

1. COc1ccc2c(O[C@@H]3C[C@H]4C(=O)N[C@]5(C(=O)NS(=O)(=O)C6CC6)C[C@H]5/C=C\CCCCN(C)C(=O)[C@@H]4C3)cc(-c3nc(C(C)C)cs3)nc2c1C 2340

---

Method Notes: Plasma pharmacokinetics, Phase I open‐label two‐group fixed‐sequence drug‐drug interaction study
Stated Conditions: human, plasma, oral, Cmax, Group 1 Day 20, SMV + ODV; mean (SD)
Measure Name: Cmax (ng/mL)

1) COc1ccc2c(O[C@@H]3C[C@H]4C(=O)N[C@]5(C(=O)NS(=O)(=O)C6CC6)C[C@H]5/C=C\CCCCN(C)C(=O)[C@@H]4C3)cc(-c3nc(C(C)C)cs3)nc2c1C 5220
